System: PC-3
Experiment: Antiproliferative activity against human PC3 cells by MTT assay
Assay type: functional, cell-based
Assay Metric: IC50

COc1ccc(CNc2ncnc3c2ncn3[C@@H]2CC[C@H]3[C@@H]4CC[C@H]5NC(=O)CC[C@]5(C)[C@H]4CC[C@]3(C)O2)cc1 = > 100 µM
CCN(CC)c1nc(Cl)nc2c1ncn2[C@@H]1CC[C@H]2[C@@H]3CC[C@H]4NC(=O)CC[C@]4(C)[C@H]3CC[C@]2(C)O1 = 58.1 µM
C[C@]12CCC(=O)N[C@@H]1CC[C@@H]1[C@@H]2CC[C@]2(C)O[C@H](n3cnc4c(NCc5ccccc5)ncnc43)CC[C@@H]12 = 20.6 µM

From here, focus on the item given below.
Quickly give me recorded IC50 for `C[C@]12CCC(=O)N[C@@H]1CC[C@@H]1[C@@H]2CC[C@]2(C)O[C@H](n3cnc4c(NCCO)ncnc43)CC[C@@H]12`
49.2 µM
